Test system: SNB-75
Assay: NCI tumour cell line growth inhibition, 48 h
Calls of active or inactive are those of the source. No stated cut-off is given here; in the data, active = GI50 up to about 1.1 µM and inactive = higher.
Possible outcomes: active, inactive

molecule: O=C(O)[C@H]1CCCN1CP(=O)(O)CN1CCC[C@@H]1C(=O)O
assigned_category: inactive
--
molecule: CCCCCCCCCCCCCCCC/C(C(=O)OC)=C(/O)C(=O)OCC
assigned_category: inactive
--
molecule: COc1ccc2[nH]c(Cl)c(/C=C3/C(=O)Nc4cc(C)c(OC)cc43)c2c1
assigned_category: inactive
--
molecule: COc1cccc(C(=O)C(O)c2cccc(OC)c2OC)c1OC (configuration not stated)
assigned_category: inactive
--
molecule: O=c1c(C(c2ccc3c(c2)Cc2ccccc2-3)c2c(O)oc3ccccc3c2=O)c(O)oc2ccccc12
assigned_category: inactive
--
molecule: S=c1sc2cscc2s1
assigned_category: inactive
--
molecule: CC(=O)Nc1ccc(Nc2cc(O)nc(O)n2)cc1
assigned_category: inactive
--
molecule: CC(=O)C(N1CCCCC1)C(O)(C(F)(F)F)C(F)(F)F (configuration not stated)
assigned_category: inactive
--
molecule: CCn1cc(C(c2ccc(Cl)cc2)n2ccnc2)c2cc(Br)ccc21 (configuration not stated)
assigned_category: inactive
--
molecule: Oc1c(NCn2nc(CCCCCCCCc3nn(CNc4ccc5ccccc5c4O)c(=S)o3)oc2=S)ccc2ccccc12
assigned_category: inactive
--
molecule: C#CCn1c(=O)c(I)cn(/C(=C\C(=O)OCC)C(=O)OCC)c1=O
assigned_category: inactive
--
molecule: CC1=[N+]([O-])c2ccccc2C(=O)C1=O
assigned_category: inactive
--
molecule: C[C@H]1C=C2C(=O)O[C@H]3CC[C@@H](C1)[C@@]23O
assigned_category: inactive
--
molecule: Cc1cc2occ(-c3ccc(Cl)cc3)c2c(=O)o1
assigned_category: inactive
--
molecule: Clc1cccc(/N=C/C=C/Nc2cccc(Cl)c2)c1
assigned_category: inactive
--
molecule: CCN(CC)C(c1ccc(N(C)C)cc1)C(c1ccc(N(C)C)cc1)N(CC)CC (configuration not stated)
assigned_category: inactive
--
molecule: CC(C)OC(=O)NNc1cccc(Cl)c1
assigned_category: inactive
--
molecule: O=C(O)c1ccc(/N=C(\C(=N\c2ccc(C(=O)O)cc2)c2ccccc2)c2ccccc2)cc1
assigned_category: inactive
--
molecule: Cn1c2c3ccccc3nc-2c(O)c2ccccc21 [HYDROXYCRYPTOLEPINE]
assigned_category: inactive
--
molecule: C[C@]12CCC(=O)C(O)=C1CC[C@@H]1C2CC[C@]2(C)NC(=O)CCC12 (some centres not stated)
assigned_category: inactive
--
molecule: c1ccc2c(c1)CCN(C1=NCCO1)C2
assigned_category: inactive
--
molecule: CN(CCC(=O)O)C1=Nc2ccc(Cl)cc2C(c2ccccc2)=[N+]([O-])C1
assigned_category: inactive
--
molecule: N=C(N)NCCCS(=O)(=O)Nc1ccc(Nc2c3ccccc3nc3cc([N+](=O)[O-])ccc23)cc1
assigned_category: inactive
--
molecule: Nc1nc(F)nc2c1ncn2C1OC(CO)C(O)C1O (configuration not stated)
assigned_category: inactive
--
molecule: O=c1[nH]c2ccccc2cc1C(Cl)=C(Cl)Cl
assigned_category: inactive
--
molecule: C/C=C1\NC(=O)[C@H]2CSSCCC=C[C@H](CC(=O)N[C@H](C(C)C)C(=O)N2)OC(=O)[C@H](C(C)C)NC1=O
assigned_category: active
--
molecule: COc1cccc2cc(C(N)=O)c(=N)oc12
assigned_category: inactive
